Experimental System: TRAP1 enzyme (Homo sapiens, UniProt Q12931)
Sequence (Q12931 60-704): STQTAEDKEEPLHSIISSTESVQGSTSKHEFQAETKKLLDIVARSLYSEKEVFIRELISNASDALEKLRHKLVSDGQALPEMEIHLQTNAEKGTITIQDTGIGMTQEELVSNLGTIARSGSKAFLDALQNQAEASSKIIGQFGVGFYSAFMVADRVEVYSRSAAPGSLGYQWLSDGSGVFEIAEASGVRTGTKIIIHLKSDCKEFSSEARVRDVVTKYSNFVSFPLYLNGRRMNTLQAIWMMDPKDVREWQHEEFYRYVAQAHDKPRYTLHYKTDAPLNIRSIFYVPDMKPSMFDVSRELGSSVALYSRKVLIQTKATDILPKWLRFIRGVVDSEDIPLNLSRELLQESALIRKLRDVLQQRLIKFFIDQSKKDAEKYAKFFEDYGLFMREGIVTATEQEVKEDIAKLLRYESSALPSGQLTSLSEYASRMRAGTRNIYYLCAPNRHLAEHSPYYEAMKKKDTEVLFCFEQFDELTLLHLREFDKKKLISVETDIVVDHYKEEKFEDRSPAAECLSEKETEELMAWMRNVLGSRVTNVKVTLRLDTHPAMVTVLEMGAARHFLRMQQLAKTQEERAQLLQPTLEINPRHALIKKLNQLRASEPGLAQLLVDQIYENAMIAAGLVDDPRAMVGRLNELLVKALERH
Method Summary: ADP Glo assay of TRAP1 ATPase activity
Format: biochemical
Condition Notes: read-out: ADP GLO DRC: Mean Emax
Each entry below lists one item and its recorded Emax value.

{"columns": ["Substance Smiles", "Emax"],
 "data": [
  ["O=C(Nc1ccc(F)c(S(=O)(=O)Nc2ccc(Cl)cc2)c1)c1cccc(-c2cncnc2)c1", "160 to 199%"],
  ["COc1ccc(NC(=O)c2ccc(C(C)(C)C)nc2)cc1S(=O)(=O)Nc1c(C)cccc1C", "160 to 199%"],
  ["COc1ccc(NC(=O)c2cc3ccccc3[n+](C)c2)cc1S(=O)(=O)Nc1c(C)cccc1C", "160 to 199%"],
  ["CCc1cc(C(=O)Nc2ccc(OC)c(S(=O)(=O)Nc3c(C)cccc3C)c2)cc(C)n1", "> 300%"],
  ["COCCn1ccc(C(=O)Nc2ccc(OC)c(S(=O)(=O)Nc3c(C)cccc3C)c2)n1", "160 to 199%"],
  ["COc1ccc(NC(=O)c2ccc3ncn(C)c3c2)cc1S(=O)(=O)Nc1c(C)cccc1C", "123 to 159%"],
  ["COc1ccc(NC(=O)c2c[nH]c3cnccc23)cc1S(=O)(=O)Nc1c(C)cccc1C", "160 to 199%"],
  ["COc1ccc(NC(=O)c2ncc(-c3ccccc3)o2)cc1S(=O)(=O)Nc1c(C)csc1C", "160 to 199%"]
]}
